Hi! I'm sharing some Ki results obtained with cloned human H3 receptors, stably expressed in SK-N-MC cells (Homo sapiens).
Sequence (Q9Y5N1 whole entry): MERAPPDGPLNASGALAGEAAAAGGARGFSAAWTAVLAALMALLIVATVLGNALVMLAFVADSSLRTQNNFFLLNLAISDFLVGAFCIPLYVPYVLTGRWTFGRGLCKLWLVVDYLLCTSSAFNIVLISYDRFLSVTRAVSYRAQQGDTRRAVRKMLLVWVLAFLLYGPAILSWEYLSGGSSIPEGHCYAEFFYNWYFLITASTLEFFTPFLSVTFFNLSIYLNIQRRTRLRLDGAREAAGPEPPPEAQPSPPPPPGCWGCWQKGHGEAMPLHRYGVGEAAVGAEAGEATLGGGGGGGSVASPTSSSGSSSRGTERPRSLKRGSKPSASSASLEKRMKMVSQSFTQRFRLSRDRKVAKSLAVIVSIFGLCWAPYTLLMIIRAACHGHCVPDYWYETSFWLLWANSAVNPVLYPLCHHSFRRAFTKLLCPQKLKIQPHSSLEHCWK
Where a name gives a salt, the structure may show the parent alone.
property: Ki (nM)

molecule	targetDesc	observed
CSc1ccc(C2CN(C)Cc3cc(Oc4ccc(CN5CCCCC5)cc4)ccc32)cc1 (stereo not drawn) [Example 9]	cloned human H3 receptors, stably expressed in SK-N-MC cells (Homo sapiens)	22.7
CSc1ccc(C2CN(C)Cc3cc(Oc4cccc(CN5CCCCC5)n4)ccc32)cc1 (stereo not drawn) [Example 2, Trifluoroacetic Acid Salt]	cloned human H3 receptors, stably expressed in SK-N-MC cells (Homo sapiens)	51
CSc1ccc(C2CN(C)Cc3cccc(Oc4ccnc(CN5CCCCC5)c4)c32)cc1 (stereo not drawn) [Example 3B, Trifluoroacetic Acid Salt]	cloned human H3 receptors, stably expressed in SK-N-MC cells (Homo sapiens)	265

----------
pKi: −log10 of the molar value. Counter-ions that a name gives are not always drawn.
Hi! I'm sharing some pKi results obtained with cloned human H3 receptors, stably expressed in SK-N-MC cells (Homo sapiens).

compound	pKi
CSc1ccc(C2CN(C)Cc3cc(Oc4ccc(CN5CCCCC5)nc4)ccc32)cc1 (stereo not shown)	7.61
CSc1ccc(C2CN(C)Cc3cc(Oc4ccnc(CN5CCCCC5)c4)ccc32)cc1 (stereo not shown) [Example 3A, Trifluoroacetic Acid Salt]	6.49
CSc1ccc(C2CN(C)Cc3cccc(Oc4cccc(CN5CCCCC5)c4)c32)cc1 (stereo not shown) [Example 1B, Trifluoroacetic Acid Salt]	6.60
CSc1ccc(C2CN(C)Cc3cc(Oc4cc(CN5CCCCC5)ccn4)ccc32)cc1 (stereo not shown)	7.46

----------
# targetDesc: human SERT (HEK293 membranes) (Homo sapiens, UniProt P31645)
# Construct: expressed in transfected cells; host or cells: HEK293
# Sequence (P31645 whole entry): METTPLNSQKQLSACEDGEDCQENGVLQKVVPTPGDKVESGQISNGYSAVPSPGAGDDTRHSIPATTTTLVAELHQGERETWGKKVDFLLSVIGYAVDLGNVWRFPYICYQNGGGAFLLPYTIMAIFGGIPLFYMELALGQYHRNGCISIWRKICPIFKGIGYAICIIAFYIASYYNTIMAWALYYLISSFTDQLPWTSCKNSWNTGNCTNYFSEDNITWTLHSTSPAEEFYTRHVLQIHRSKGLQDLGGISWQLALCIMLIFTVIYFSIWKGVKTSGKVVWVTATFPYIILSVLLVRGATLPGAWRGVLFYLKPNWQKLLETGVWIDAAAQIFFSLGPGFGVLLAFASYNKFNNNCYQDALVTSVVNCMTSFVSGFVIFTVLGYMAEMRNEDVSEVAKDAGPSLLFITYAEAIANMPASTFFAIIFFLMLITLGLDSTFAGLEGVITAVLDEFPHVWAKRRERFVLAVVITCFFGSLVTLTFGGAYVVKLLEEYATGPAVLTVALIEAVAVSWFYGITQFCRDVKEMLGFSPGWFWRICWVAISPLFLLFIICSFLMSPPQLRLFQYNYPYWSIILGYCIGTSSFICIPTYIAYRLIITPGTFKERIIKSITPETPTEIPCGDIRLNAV
# procedureText: Human SERT 3H-citalopram binding
# cond: HEK293 membranes expressing human SERT, rt 1 h
Where a name gives a salt, the structure may show the parent alone.
property: log10(Ki) (log10 of the value in nM)

compound	log10(Ki)
CSc1ccc(C2CN(C)Cc3cccc(Oc4ccnc(CN5CCCCC5)c4)c32)cc1 (stereo not shown) [Example 3B, Trifluoroacetic Acid Salt]	2.20
CSc1ccc(C2CN(C)Cc3cc(Oc4cc(CN5CCCCC5)ccn4)ccc32)cc1 (stereo not shown)	0.38
CSc1ccc(C2CN(C)Cc3cccc(Oc4cncc(CN5CCCCC5)c4)c32)cc1 (stereo not shown) [Example 4B, Trifluoroacetic Acid Salt]	2.42
CSc1ccc(C2CN(C)Cc3cc(Oc4cccc(CN5CCCCC5)c4)ccc32)cc1 (stereo not shown) [Example 1A, trifluoroacetic acid salt]	1.25
CSc1ccc(C2CN(C)Cc3cc(Oc4ncc(CN5CCCCC5)s4)ccc32)cc1 (stereo not shown)	0.51
CSc1ccc(C2CN(C)Cc3cc(Oc4nc(CN5CCCCC5)cs4)ccc32)cc1 (stereo not shown)	0.63
CSc1ccc(C2CN(C)Cc3cc(Oc4ccnc(CN5CCCCC5)c4)ccc32)cc1 (stereo not shown) [Example 3A, Trifluoroacetic Acid Salt]	1.02
CSc1ccc(C2CN(C)Cc3cc(Oc4ccc(CN5CCCCC5)nc4)ccc32)cc1 (stereo not shown)	0.90
CSc1ccc(C2CN(C)Cc3cc(Oc4cccc(CN5CCCCC5)n4)ccc32)cc1 (stereo not shown) [Example 2, Trifluoroacetic Acid Salt]	1.34
CSc1ccc(C2CN(C)Cc3cc(Oc4ccc(CN5CCCCC5)cc4)ccc32)cc1 (stereo not shown)	0.58

----------
# targetDesc: UniProt:P31652
# Sequence (P31652 whole entry): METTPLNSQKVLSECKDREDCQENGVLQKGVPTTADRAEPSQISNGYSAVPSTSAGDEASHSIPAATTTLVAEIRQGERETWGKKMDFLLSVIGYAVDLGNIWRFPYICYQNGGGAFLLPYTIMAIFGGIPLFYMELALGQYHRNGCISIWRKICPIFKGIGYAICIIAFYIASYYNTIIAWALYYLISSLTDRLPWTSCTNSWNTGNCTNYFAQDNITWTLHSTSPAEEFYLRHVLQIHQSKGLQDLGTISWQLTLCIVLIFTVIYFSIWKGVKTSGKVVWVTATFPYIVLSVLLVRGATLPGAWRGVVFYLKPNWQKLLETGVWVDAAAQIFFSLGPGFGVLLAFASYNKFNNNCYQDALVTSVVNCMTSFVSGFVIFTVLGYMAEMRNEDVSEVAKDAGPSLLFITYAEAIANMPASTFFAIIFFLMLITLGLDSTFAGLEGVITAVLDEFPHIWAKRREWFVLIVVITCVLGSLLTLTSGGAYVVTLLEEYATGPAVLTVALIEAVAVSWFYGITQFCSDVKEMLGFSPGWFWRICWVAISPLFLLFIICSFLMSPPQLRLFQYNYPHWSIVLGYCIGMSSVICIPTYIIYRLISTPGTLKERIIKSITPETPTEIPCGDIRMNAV
Counter-ions that a name gives are not always drawn.
// NB: equality with 0.2 µM counts as 0; only Ki strictly below is 1

compound	assignedLabel
CSc1ccc(C2CN(C)Cc3cc(Oc4ccc(CN5CCCCC5)nc4)ccc32)cc1 (centres unmarked)	1
CSc1ccc(C2CN(C)Cc3cc(Oc4nc(CN5CCCCC5)cs4)ccc32)cc1 (centres unmarked)	1
CSc1ccc(C2CN(C)Cc3cccc(Oc4cccc(CN5CCCCC5)c4)c32)cc1 (centres unmarked) [Example 1B, Trifluoroacetic Acid Salt]	0
CSc1ccc(C2CN(C)Cc3cccc(Oc4ccnc(CN5CCCCC5)c4)c32)cc1 (centres unmarked) [Example 3B, Trifluoroacetic Acid Salt]	1
CSc1ccc(C2CN(C)Cc3cccc(Oc4cncc(CN5CCCCC5)c4)c32)cc1 (centres unmarked) [Example 4B, Trifluoroacetic Acid Salt]	1

Data origin, for the record: patent US7846930B2
